Just for reference, patent US20220400680A1 is where these values come from.

# Tested on: Grape, type Pinot Noir (C4)
# experiment: Greenhouse test, cut wine sprouts C4 dipped in test solution, bud development stage
# Format: in vivo, Vitis vinifera subsp. vinifera
# Set-up: key: Stage 0: Buds unchanged; Stage 1: Buds slightly swollen, first green tips visible; Stage 2: strongly swollen, green buds; Stage 3: Buds before breaking open, leaf or flower root already visible; Stage 4: Flower buds fully developed, but still closed, white petals already visible. In the case of the grapevine, stage 4 was the unfolding of the first leaves; Stage 5: Flowers fully open or, in the case of grapevine, unfolding of the flower roots (“Gescheine”) on the fully leafed sprouts
# protocol_conditions: T3 (21 d)
Catalogue of Bud development stage, wine sprouts C4 readings, one per entry.
Output spec: single numeric token, no unit.

| molecule | experimental_value |
| --- | --- |
| CCC(=O)NC#N.[Na] [Example A-5, Sodium propionyl cyanamide] | 0 |

Bud development stage, wine sprouts C4 for CCCCCC(=O)NC#N.[Na] [Example A-9, Sodium hexanoyl cyanamide] ?
0

How about this molecule: N#CNC(=O)c1ccccc1.[Na] [Example A-4, Sodium benzoyl cyanamide]
0

How about this molecule: CC(=O)NC#N.[Na] [Example A-1, Sodium Acetylcyanamide]
0

How about this molecule: N#CNC(=O)Cc1ccccc1.[Na] [Example A-12, Sodium phenylacetyl cyanamide]
1

====

# System: Table apple, type Zabergäu-Renette (C2)
# experiment: Greenhouse test, cut apple branches C2 dipped in test solution, bud development stage
# Assay type: in vivo, Malus domestica
# Set-up: key: Stage 0: Buds unchanged; Stage 1: Buds slightly swollen, first green tips visible; Stage 2: strongly swollen, green buds; Stage 3: Buds before breaking open, leaf or flower root already visible; Stage 4: Flower buds fully developed, but still closed, white petals already visible. In the case of the grapevine, stage 4 was the unfolding of the first leaves; Stage 5: Flowers fully open or, in the case of grapevine, unfolding of the flower roots (“Gescheine”) on the fully leafed sprouts
# protocol_conditions: T6 (56 d)
# Method: Greenhouse tests were conducted using cut fruit tree branches placed in water jars and maintained under controlled conditions with temperature regulation at approximately 22° C. and natural lighting. C2: Table Apple, Type […] Table apple: Malus domestica type […] first developed in 1885 as a chance seedling in Hausen a.d. Zaber/Baden-Württemberg and initially grown as 'Hausener Graue […]'. No defined storage type; requires heavy soils (loam). […]
readout: Bud development stage, apple branches C2
Output spec: single numeric token, no unit.

These solved cases illustrate the format of a correct answer.
| molecule | experimental_value |
| --- | --- |
| Cc1ccc(C(=O)NC#N)cc1.[Na] [Example A-13, Sodium-4-methyl-benzoyl-cyanamide] | 5 |
| N#CNC(=O)Cc1ccccc1.[Na] [Example A-12, Sodium phenylacetyl cyanamide] | 5 |
| CCCCCCCCCCCC(=O)NC#N.[Na] [Example A-10, Sodium dodecanoyl cyanamide] | 4 |
| N#CNC(=O)c1ccccc1.[Na] [Example A-4, Sodium benzoyl cyanamide] | 2 |
| CCC(=O)NC#N.[Na] [Example A-5, Sodium propionyl cyanamide] | 4 |

What reported Bud development stage, apple branches C2 corresponds to CCCC(=O)NC#N.[Na] [Example A-6, Sodium butyryl cyanamide] on Table apple, type Zabergäu-Renette (C2)?
5

How about this molecule: N#CNC=O.[Na] [Example A-2, Sodium Formylcyanamide]
5

How about this molecule: CC(C)(C)C(=O)NC#N.[Na] [Example A-8, Sodium pivaloyl cyanamide]
4

How about this molecule: N#CNC(=O)CCC(=O)NC#N.[Na].[Na] [Example A-14]
4
